METHOD_NOTES: qHTS of pediatric cancer cell lines to identify multiple opportunities for drug repurposing: Primary screen for SK-N-MC cells (AID 1347093)
APPLIED_CONDITIONS: SK-N-MC viability, CellTiter-Glo luminescence, 48 h; series mostly up to 46 µM
Inconclusive results are not listed. The source made the active and inactive calls. Calls come from the whole dose curve; as a rule, active = well fitted cell-killing curve with a large enough effect; inconclusive = small, poorly fitted or top-dose-only effect; inactive = no such curve, though single readings can be large or run the other way.
Hello, when you answer, please use one of the following outcomes: active, inactive

MOLECULE	CLASS_LABEL
CCn1cc(C(=O)O)c(=O)c2cc(F)c(N3CCN(C)CC3)cc21	inactive
CNCC[C@H](Oc1cccc2ccccc12)c1cccs1	active
CCCCOc1ccc(CC(=O)NO)cc1	active
CCC(=O)O[C@]1(C(=O)SCF)[C@H](C)C[C@H]2[C@@H]3C[C@H](F)C4=CC(=O)C=C[C@]4(C)[C@@]3(F)[C@@H](O)C[C@@]21C	inactive

Incoming: Which outcome did this test record for the molecule Cc1oc(=O)oc1CN1CCN(c2cc3c(cc2F)c(=O)c(C(=O)O)c2n3C(C)S2)CC1 (stereo not drawn) ?
Outgoing: inactive

Incoming: Note, next up: CN(C)c1ccc(C(=C2C=CC(=[N+](C)C)C=C2)c2ccc(N(C)C)cc2)cc1
Outgoing: active

Incoming: Then O=NN(CCCl)C(=O)NC1CCCCC1 ?
Outgoing: inactive

Incoming: Also, Cc1nnc(NS(=O)(=O)c2ccc(N)cc2)s1 please.
Outgoing: active

Incoming: Another molecule to check: COc1nc(N)nc2c1ncn2[C@@H]1O[C@H](CO)[C@@H](O)[C@@H]1O
Outgoing: inactive

Source: PubChem BioAssay (NCATS)
